Activity values by entry
Test system: NCI-H460
experimental.protocol: Anticancer activity against Homo sapiens (human) NCI-H460 cells assessed as cell growth promotion at 10 uM after 48 hr by SRB assay
Assay type: functional
Write the answer as a number in %, unit excluded.

Consider the worked cases shown below.
>  <given.smiles>
Cc1ccc(Nn2c(SCC(=O)Nc3nc(-c4ccccc4)cs3)nc(C)c2C)cc1

>  <recorded.measurement>
78.13

$$$$
>  <given.smiles>
CCOC(=O)c1csc(NC(=O)CSc2nc(C)c(C)n2Nc2ccc(C)cc2)n1

>  <recorded.measurement>
109.11

$$$$
>  <given.smiles>
Cc1nc(SCC(=O)Nc2nccs2)n(Nc2ccccc2)c1C

>  <recorded.measurement>
102.18

$$$$
>  <given.smiles>
COc1ccc(Nn2c(SCC(=O)Nc3nc(-c4ccc(Cl)cc4)cs3)nc(C)c2C)cc1

>  <recorded.measurement>
39.32

$$$$
>  <given.smiles>
Cc1nc(SCC(=O)Nc2nc(-c3ccc(Cl)cc3)cs2)n(Nc2ccccc2)c1C

>  <recorded.measurement>
52.96

$$$$

Report measured Activity; entry is COc1ccc(Nn2c(SCC(=O)Nc3nccs3)nc(C)c2C)cc1
108.22

Report measured Activity; entry is Cc1nc(SCC(=O)Nc2nccs2)n(Nc2ccc(Cl)cc2)c1C
106

###

Tested on: A549
experimental.protocol: Anticancer activity against Homo sapiens (human) A549/ATCC cells assessed as cell growth promotion at 10 uM after 48 hr by SRB assay
Assay type: functional
observable: Activity

Consider the worked cases shown below.
>  <given.smiles>
Cc1nc(SCC(=O)Nc2nccs2)n(Nc2ccccc2)c1C

>  <recorded.measurement>
98.55%

$$$$
>  <given.smiles>
Cc1nc(SCC(=O)Nc2nc(-c3ccc(Cl)cc3)cs2)n(Nc2ccccc2)c1C

>  <recorded.measurement>
28.85%

$$$$
>  <given.smiles>
Cc1nc(SCC(=O)Nc2nccs2)n(Nc2ccc(Cl)cc2)c1C

>  <recorded.measurement>
101.96%

$$$$
>  <given.smiles>
Cc1ccc(Nn2c(SCC(=O)Nc3nc(-c4ccccc4)cs3)nc(C)c2C)cc1

>  <recorded.measurement>
46.29%

$$$$
>  <given.smiles>
CCOC(=O)c1csc(NC(=O)CSc2nc(C)c(C)n2Nc2ccc(C)cc2)n1

>  <recorded.measurement>
82.13%

$$$$
>  <given.smiles>
COc1ccc(Nn2c(SCC(=O)Nc3nccs3)nc(C)c2C)cc1

>  <recorded.measurement>
104.98%

$$$$

Note: attention shifts to another entry.
Report measured Activity; entry is COc1ccc(Nn2c(SCC(=O)Nc3nc(-c4ccc(Cl)cc4)cs3)nc(C)c2C)cc1
44%

###

Test system: NCI/ADR-RES
experimental.protocol: Anticancer activity against Homo sapiens (human) NCI/ADR-RES cells assessed as cell growth promotion at 10 uM after 48 hr by SRB assay
Assay type: functional
Labelling: Activity reported below 30% becomes satisfied; at or above becomes not satisfied.

Consider the worked cases shown below.
>  <given.smiles>
Cc1nc(SCC(=O)Nc2nccs2)n(Nc2ccc(Cl)cc2)c1C

>  <discrete.label>
not satisfied

$$$$
>  <given.smiles>
Cc1nc(SCC(=O)Nc2nccs2)n(Nc2ccccc2)c1C

>  <discrete.label>
not satisfied

$$$$

Decide: Activity of CCOC(=O)c1csc(NC(=O)CSc2nc(C)c(C)n2Nc2ccc(C)cc2)n1 strictly below 30%?
not satisfied

Decide: Activity of COc1ccc(Nn2c(SCC(=O)Nc3nccs3)nc(C)c2C)cc1 strictly below 30%?
not satisfied

Decide: Activity of COc1ccc(Nn2c(SCC(=O)Nc3nc(-c4ccc(Cl)cc4)cs3)nc(C)c2C)cc1 strictly below 30%?
satisfied

Decide: Activity of Cc1nc(SCC(=O)Nc2nc(-c3ccc(Cl)cc3)cs2)n(Nc2ccccc2)c1C strictly below 30%?
satisfied

Decide: Activity of Cc1ccc(Nn2c(SCC(=O)Nc3nc(-c4ccccc4)cs3)nc(C)c2C)cc1 strictly below 30%?
not satisfied

Data credit: ChEMBL document CHEMBL3044631
